Each recorded value in this set is attributed to patent US20180305450A1.

target or system: T1, recombinant biotinylated human PAR2 extracellular domain (residues 1-75), N-terminal AviTag, C-terminal Flag … (human, UniProt P55085 26-75, biotin on the AviTag (enzymatic biotinylation))
T1 construct: also called Bio-human-PAR2 ECD; human PAR2 ECD; not shown: N-terminal AviTag (Avidity LLC); C-terminal Flag and poly Histidine tags
T1 sequence (P55085 26-75): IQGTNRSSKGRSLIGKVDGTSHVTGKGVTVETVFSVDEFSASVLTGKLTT
run description: HTRF competition with Dylight650-Par0067 IgG, pH 7.4, IgG
IC50 values for the binders below.
Don't forget the unit after the value.

binder	IC50
PaB670149 IgG (antibody, V domains shown, IgG1-TM (L234F, L235E, P331S), human lambda light chain) VH: EVQLLESGGGLVQPGGSLRLSCAASGFTFSSYAMNWVRQAPGKGLEWVSTISYHGHHISYADSHHHRFTISRDNSKNTLYLQMNSLRAEDTAVYYCARINHDPMDVWGQGTLVTVSS VL: SIELTQPPSVSVSPGQTASITCSGDNLGKKYVQWYQQKPGQSPVLVIYDDSNRPSGIPERFSGSNSGNTATLTISGTQAMDEADYYCHTWHHHPTHGEHNVFGGGTKLTVL	505 nM
PaB670163 IgG (antibody, V domains shown, IgG1-TM (L234F, L235E, P331S), human lambda light chain) VH: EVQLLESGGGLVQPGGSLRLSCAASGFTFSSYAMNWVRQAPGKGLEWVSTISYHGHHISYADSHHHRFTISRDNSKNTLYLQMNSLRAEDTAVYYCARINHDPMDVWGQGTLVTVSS VL: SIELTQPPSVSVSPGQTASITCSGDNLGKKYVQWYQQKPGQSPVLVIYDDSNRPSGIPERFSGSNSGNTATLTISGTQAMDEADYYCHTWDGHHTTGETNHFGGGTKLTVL	145 nM

Now look at this one.
Record PaB670158 IgG (antibody, V domains shown, IgG1-TM (L234F, L235E, P331S), human lambda light chain) VH: EVQLLESGGGLVQPGGSLRLSCAASGFTFSSYAMNWVRQAPGKGLEWVSTISYHGHHISYADSHHHRFTISRDNSKNTLYLQMNSLRAEDTAVYYCARINNDPMDVWGQGTLVTVSS VL: SIELTQPPSVSVSPGQTASITCSGDNLGKKYVQWYQQKPGQSPVLVIYDDSNRPSGIPERFSGSNSGNTATLTISGTQAMDEADYYCQTWDGHHHTGETNHFGGGTKLTVL , field IC50: 6.8 nM
